# Test system: SU-DHL-10
# assay.overview: Cell viability assay, single agent IC50
# Type: cell-based
# particulars: Homo sapiens, SU-DHL10, 72 h, read-out: in vitro IC50 of romidepsin in SU-DHL-10
measurement.label: IC50 (nM)
Give the value in nM but do not write nM after it.

Record C/C=C1\NC(=O)[C@H]2CSSCC/C=C/[C@H](CC(=O)N[C@H](C(C)C)C(=O)N2)OC(=O)[C@H](C(C)C)NC1=O has SU-DHL-10 IC50 equal to 2.59
